- Test system: P. aeruginosa HM-214
- Assay conditions: strain HM-214; antibiotic + D-11 (MICb/MICbc 128/4)
- Procedure: The MIC tests were performed in triplicate using broth microdilution in accordance with Clinical and Laboratory Standards Institute (CLSI) recommendations (http://iacld.ir/DL/public/CLSI-2018-M100-S28.pdf). […] The fractional inhibitory concentration (FIC) indices were calculated using the previously described formula FICI = FICa + FICb = MICac/MICa + MICbc/MICb. […]
Positions of bridges follow the written chain, without caps; N, C: chain ends. Non-standard residues stand in square brackets, D forms with d. Residues, ends and D or L forms follow the SMILES beside them. *: point of attachment. X1 = CC[C@H](C)CCCCC(=O)*; Dab = NCC[C@H](N)C(=O)O
Each entry gets F if its FICI stays under 0.3, and T if its FICI is 0.3 or above.

# Compound, Tested system, Category label
rows = [
    ("CO[C@H]1[C@H](OC(=O)c2ccc(C)[nH]2)[C@H](O)[C@@H](Oc2ccc3c(O)c(NC(=O)c4c[nH]c(C(=O)Nc5c(O)c6ccc(O[C@H]7OC(C)(C)[C@@H](OC)[C@H](OC(=O)c8ccc(C)[nH]8)[C@@H]7O)c(C)c6oc5=O)c4C)c(=O)oc3c2C)OC1(C)C", "P. aeruginosa HM-214", "F"),
    ("CO[C@@H]1[C@@H](OC(=O)c2ccc(C)[nH]2)[C@@H](O)[C@H](Oc2ccc3c(O)c(NC(=O)c4ccc(O)c(CC=C(C)C)c4)c(=O)oc3c2Cl)OC1(C)C", "P. aeruginosa HM-214", "T"),
    ("C[C@H]1COc2c(N3CCN(C)CC3)c(F)cc3c(=O)c(C(=O)O)cn1c23", "P. aeruginosa HM-214", "T"),
    ("O=C(N[C@H](CO)[C@H](O)c1ccc([N+](=O)[O-])cc1)C(Cl)Cl", "P. aeruginosa HM-214", "F"),
    ("CC1(C)S[C@@H]2[C@H](NC(=O)C(C(=O)O)c3ccccc3)C(=O)N2[C@H]1C(=O)O (stereo partly drawn)", "P. aeruginosa HM-214", "T"),
    ("CO[C@H]1/C=C/O[C@@]2(C)Oc3c(C)c(O)c4c(O)c(c(/C=N/N5CCN(C6CCCC6)CC5)c(O)c4c3C2=O)NC(=O)/C(C)=C\\C=C\\[C@H](C)[C@H](O)[C@@H](C)[C@@H](O)[C@@H](C)[C@H](OC(C)=O)[C@@H]1C", "P. aeruginosa HM-214", "F"),
    ("CC[C@H]1OC(=O)[C@H](C)C(=O)[C@H](C)[C@@H](O[C@@H]2O[C@H](C)C[C@H](N(C)C)[C@H]2O)[C@](C)(OC)C[C@@H](C)C(=O)[C@H](C)[C@H]2N(CCCCn3cnc(-c4cccnc4)c3)C(=O)O[C@]12C", "P. aeruginosa HM-214", "F"),
    ("CN(C)c1ccc(O)c2c1C[C@H]1C[C@H]3[C@H](N(C)C)C(O)=C(C(N)=O)C(=O)[C@@]3(O)C(O)=C1C2=O", "P. aeruginosa HM-214", "F"),
    ("CC[C@H](C)CCCCC(=O)N[C@@H](CCN)C(=O)N[C@H](C(=O)N[C@@H](CCN)C(=O)N[C@H]1CCNC(=O)[C@H]([C@@H](C)O)NC(=O)[C@H](CCN)NC(=O)[C@H](CCN)NC(=O)[C@H](CC(C)C)NC(=O)[C@@H](CC(C)C)NC(=O)[C@H](CCN)NC1=O)[C@@H](C)O [Colistin] (X1-[Dab]T[Dab][Dab][Dab][dL]L[Dab][Dab]T; lactam 4-C (inferred); N-terminus assumed)", "P. aeruginosa HM-214", "F"),
    ("CC[C@H]1OC(=O)[C@H](C)[C@@H](O[C@H]2C[C@@](C)(OC)[C@@H](O)[C@H](C)O2)[C@H](C)[C@@H](O[C@@H]2O[C@H](C)C[C@H](N(C)C)[C@H]2O)[C@](C)(OC)C[C@@H](C)C(=O)[C@H](C)[C@@H](O)[C@]1(C)O", "P. aeruginosa HM-214", "F"),
    ("CN(C)[C@@H]1C(O)=C(C(N)=O)C(=O)[C@@]2(O)C(O)=C3C(=O)c4c(O)c(NC(=O)CN5CCCC5)cc(F)c4C[C@H]3C[C@@H]12", "P. aeruginosa HM-214", "F"),
    ("C[C@H]1c2cccc(O)c2C(=O)C2=C(O)[C@]3(O)C(=O)C(C(N)=O)=C(O)[C@@H](N(C)C)[C@@H]3[C@@H](O)[C@@H]21", "P. aeruginosa HM-214", "F"),
]

All values here come from paper PMC8445441.
